Target: T1, monkey CD22 protein (ACROBiosystems, catalog number SI2-R52Ha) (monkey, UniProt F6W485 20-688)
T1 construct: commercial protein; also called monkey CD22-ECD; monkey CD22-ECD-His
T1 sequence: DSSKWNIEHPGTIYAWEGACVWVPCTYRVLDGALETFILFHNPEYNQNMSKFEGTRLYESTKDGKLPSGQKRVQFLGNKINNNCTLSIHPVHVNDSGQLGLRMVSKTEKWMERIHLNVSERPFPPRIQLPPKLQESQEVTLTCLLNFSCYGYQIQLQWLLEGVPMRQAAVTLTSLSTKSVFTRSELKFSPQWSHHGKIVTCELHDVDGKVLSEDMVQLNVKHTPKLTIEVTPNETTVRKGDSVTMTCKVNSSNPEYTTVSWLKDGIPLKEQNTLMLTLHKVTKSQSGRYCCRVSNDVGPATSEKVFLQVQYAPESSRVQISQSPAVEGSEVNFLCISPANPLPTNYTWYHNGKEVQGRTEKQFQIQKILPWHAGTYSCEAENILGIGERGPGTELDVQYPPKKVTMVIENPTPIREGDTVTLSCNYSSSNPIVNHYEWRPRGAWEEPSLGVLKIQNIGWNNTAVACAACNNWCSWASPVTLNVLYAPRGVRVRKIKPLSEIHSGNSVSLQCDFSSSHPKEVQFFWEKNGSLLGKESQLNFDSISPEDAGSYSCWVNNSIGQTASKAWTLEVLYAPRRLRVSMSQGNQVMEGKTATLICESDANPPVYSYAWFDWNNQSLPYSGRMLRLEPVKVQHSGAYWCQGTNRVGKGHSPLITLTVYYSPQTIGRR
Test: ELISA, coated monkey CD22 protein, antibody 0.0001 nM
Each item that follows carries a reported OD450.
ENDPOINT_LABEL: OD450

F1.192.1 (antibody, human IgG1, kappa, V domains shown, human-murine chimeric IgG1 kappa) VH: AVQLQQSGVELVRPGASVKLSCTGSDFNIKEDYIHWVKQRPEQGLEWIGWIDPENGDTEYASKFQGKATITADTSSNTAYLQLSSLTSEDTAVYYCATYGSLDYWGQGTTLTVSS VL: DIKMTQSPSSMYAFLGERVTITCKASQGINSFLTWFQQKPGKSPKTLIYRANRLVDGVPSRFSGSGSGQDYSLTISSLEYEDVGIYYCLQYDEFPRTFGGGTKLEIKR: 0.07 OD450
F2.151.13 (antibody, human IgG1, lambda, V domains shown, human-murine chimeric IgG1 lambda) VH: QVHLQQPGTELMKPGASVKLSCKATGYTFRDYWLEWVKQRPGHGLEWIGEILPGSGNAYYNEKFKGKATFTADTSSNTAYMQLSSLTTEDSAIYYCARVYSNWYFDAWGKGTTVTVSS VL: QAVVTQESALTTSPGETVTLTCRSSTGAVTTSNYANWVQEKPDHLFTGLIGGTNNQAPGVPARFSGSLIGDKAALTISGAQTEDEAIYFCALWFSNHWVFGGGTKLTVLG: 0.1 OD450
F2.55.1 (antibody, human IgG1, lambda, V domains shown, human-murine chimeric IgG1 lambda; VL name legible) VH: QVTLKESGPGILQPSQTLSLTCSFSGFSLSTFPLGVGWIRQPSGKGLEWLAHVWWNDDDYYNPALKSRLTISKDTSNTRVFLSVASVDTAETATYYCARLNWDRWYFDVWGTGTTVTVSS VL: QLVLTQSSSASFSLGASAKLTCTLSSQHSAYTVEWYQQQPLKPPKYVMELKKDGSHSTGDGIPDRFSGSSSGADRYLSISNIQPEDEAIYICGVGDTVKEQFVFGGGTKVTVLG: 0.07 OD450
F2.104.10 (antibody, human IgG1, lambda, V domains shown, human-murine chimeric IgG1 lambda) VH: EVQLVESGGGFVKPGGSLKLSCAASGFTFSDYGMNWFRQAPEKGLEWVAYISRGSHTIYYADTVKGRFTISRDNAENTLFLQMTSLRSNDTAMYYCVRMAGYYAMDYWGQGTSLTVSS VL: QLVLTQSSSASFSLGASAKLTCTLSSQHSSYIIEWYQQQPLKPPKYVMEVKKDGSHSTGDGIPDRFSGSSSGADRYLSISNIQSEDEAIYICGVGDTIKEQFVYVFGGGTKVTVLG: 0.05 OD450
